Can you tell me inhibition of mean fluorescence for the items I'm about to list?
- assay notes: blockers of bacterial quorum-sensing reporter fluorescence – flow cytometry, SAR analogs, SAR follow-up (AID 1014);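 note: Staphylococcus aureus RN6390 with RNAIII-GFP reporter stimulated by AIP; bacteria incubated with compound for 3 hours at 37 °C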
- experimental context: at 20 µM, stronger effect = higher value
One number for each entry, in %.

I would be grateful if you could provide inhibition of mean fluorescence for each of the following entries.
1. O=C(NCC(c1cccnc1)N1CCc2ccccc21)c1ccc(F)c(F)c1 (stereo not given)
2. CC(C)(C)c1ccc(S(=O)(=O)c2nnn3c2nc(Nc2ccccc2)c2ccccc23)cc1
3. CN1CCN(C(=O)C(=O)Nc2ccc3c(c2)OCO3)CC1
4. CCOC(=O)C1=C(c2ccccc2)NC(SCC(=O)Nc2sc3c(c2C(=O)OCC)CCCC3)=C(C#N)C1c1ccco1 (stereo not given)
5. O=C(NCC(c1cccnc1)N1CCN(c2ccccc2F)CC1)c1ccc(F)cc1 (stereo not given)

*A*
1. 19.9
2. -15.5
3. -2.5
4. -27.4
5. 11.5

I would be grateful if you could provide inhibition of mean fluorescence for each of the following entries.
1. O=C(NC1CCCC1)C(c1cc2c(cc1[N+](=O)[O-])OCO2)N1CCN(C2CCCCC2)CC1 (stereo not given)
2. CC(=O)c1cc2c(O)c(O)ccc2o1
3. CC(C)(C)c1ccc(S(=O)(=O)c2n[nH]n3c2nc(=O)c2ccccc23)cc1
4. O=C(NCC(c1cccnc1)N1CCN(c2ccccc2F)CC1)c1ccco1 (stereo not given)
5. CC(=O)c1c(C)oc2c1cc(O)c1ccccc12

*A*
[-24.8, 17.9, 13.3, -27.7, 9.1]

---

- assay notes: blockers of bacterial quorum-sensing reporter fluorescence – flow cytometry, SAR analogs, SAR follow-up (AID 1014);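 note: Staphylococcus aureus RN6390 with RNAIII-GFP reporter stimulated by AIP; bacteria incubated with compound for 3 hours at 37 °C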
- experimental context: at 20 µM, stronger effect = higher value; measured here: percent reporter-positive cells
Can you tell me inhibition of percent positive cells for the items I'm about to list?
Numbers only, in %.

I would be grateful if you could provide inhibition of percent positive cells for each of the following entries.
1. O=C(CCN1CCN(c2ccccc2)CC1)Nc1ccc2c(c1)OCO2
2. COc1ccc(C(=O)NCC(c2cccnc2)N2CCN(c3ccc(F)cc3)CC2)cc1 (configuration not stated)
3. COc1cc(Nc2cc(C)nc3nc(C)nn23)c(C(=O)O)cc1OC
4. COc1cccc(C(=O)NCC(c2cccnc2)N2CCN(c3ccccc3OC)CC2)c1 (configuration not stated)
5. O=C(Nc1ccc2c(c1)OCO2)C1CCCN(C(=O)c2cnn(-c3ccccc3)c2-n2cccc2)C1 (configuration not stated)
6. Cc1ccccc1C(=O)N1CCC(C(=O)Nc2ccc3c(c2)OCO3)CC1
7. NC1=NC(=O)CC(C(=O)Nc2cccc3ccccc23)S1 (configuration not stated)
8. O=C(NCCN1CCN(c2ccccc2)CC1)c1ccccc1F

*A*
1. 1.3
2. -0.3
3. 0.5
4. -0.3
5. 0.1
6. -0.4
7. 1.5
8. -1.5

---

- assay notes: blockers of bacterial quorum-sensing reporter fluorescence – flow cytometry, SAR analogs, SAR follow-up (AID 1014);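 note: Staphylococcus aureus RN6390 with RNAIII-GFP reporter stimulated by AIP; bacteria incubated with compound for 3 hours at 37 °C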
- experimental context: at 20 µM, stronger effect = higher value
readout type: inhibition of mean fluorescence (%)
Give bare numbers, in %.

I would be grateful if you could provide inhibition of mean fluorescence for each of the following entries.
1. O=C(NCC(c1cccnc1)N1CCc2ccccc21)c1cccc(Br)c1 (configuration not stated)
2. CCN1CCN(C(C(=O)NC2CCCC2)c2cc3c(cc2[N+](=O)[O-])OCO3)CC1 (configuration not stated)
3. O=C(Nc1ccc2c(c1)OCO2)C(c1ccc(Cl)cc1)N1CCN(C(=O)c2ccco2)CC1 (configuration not stated)
4. N#Cc1c(NC(=O)COC(=O)CN2C(=O)c3ccccc3C2=O)sc2c1CCCC2
5. O=C(NCC(c1cccnc1)N1CCN(c2ccccc2F)CC1)c1cccs1 (configuration not stated)

*A*
29.6
-8.6
2.2
-2.3
19.5
